src = patent EP4741392A1

Molecular target: TEC (Homo sapiens, UniProt P42680)
Sequence (P42680 1-631): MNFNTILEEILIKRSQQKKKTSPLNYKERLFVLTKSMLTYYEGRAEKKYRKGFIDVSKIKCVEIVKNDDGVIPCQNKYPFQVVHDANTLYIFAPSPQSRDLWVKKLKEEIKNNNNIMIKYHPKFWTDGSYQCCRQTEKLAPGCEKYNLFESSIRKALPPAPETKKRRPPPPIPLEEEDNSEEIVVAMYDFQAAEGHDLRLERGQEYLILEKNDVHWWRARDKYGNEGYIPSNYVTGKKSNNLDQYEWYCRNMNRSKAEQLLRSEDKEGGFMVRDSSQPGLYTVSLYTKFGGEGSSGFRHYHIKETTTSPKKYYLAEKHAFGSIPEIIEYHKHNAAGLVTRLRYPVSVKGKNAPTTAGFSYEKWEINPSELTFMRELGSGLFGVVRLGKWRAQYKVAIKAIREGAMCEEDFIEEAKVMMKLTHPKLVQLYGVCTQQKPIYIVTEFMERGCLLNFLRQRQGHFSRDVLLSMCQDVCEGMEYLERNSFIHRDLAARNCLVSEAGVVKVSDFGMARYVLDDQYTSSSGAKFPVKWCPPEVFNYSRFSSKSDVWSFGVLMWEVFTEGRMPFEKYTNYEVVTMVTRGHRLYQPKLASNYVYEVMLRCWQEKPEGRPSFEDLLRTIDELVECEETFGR
pIC50: −log10 of the molar value.
Below is a list of entries, each paired with its recorded pIC50 value.

COc1ccc(F)cc1C(=O)NCc1ccc(-c2ncc(-c3ccc(F)cn3)c3[nH]nc(N)c23)cc1: 6.30 to 7.30
COc1ccc(F)cc1C(=O)NCc1ccc(-c2ncc(-c3ccc(OCCN4CCOCC4)cn3)c3[nH]nc(N)c23)cc1: 7.30 to 8.30
COc1ccc(F)cc1C(=O)NCc1ccc(-c2ncc(-c3ccc(C(=O)N4C[C@H](C)O[C@@H](C)C4)cn3)c3[nH]nc(N)c23)cc1: 7.30 to 8.30
COc1ccc(F)cc1C(=O)NCc1ccc(-c2ncc(-c3ccc(OCCN4CCCC4)cn3)c3[nH]nc(N)c23)cc1: 6.30 to 7.30

Problem: In one line, give reported pIC50 of the entry "COc1ccc(F)cc1C(=O)NCc1ccc(-c2ncc(-c3ccc(NC(=O)C4CC4)cn3)c3[nH]nc(N)c23)cc1" .
Solution: < 6.30

Problem: State, in one line, measured pIC50 of "COc1ccc(F)cc1C(=O)NCc1ccc(-c2ncc(-c3ccc(CN4CCN(C)CC4)cn3)c3[nH]nc(N)c23)cc1"
Solution: 7.30 to 8.30

Problem: Return pIC50 (reported value) for this molecule: "COc1ccc(F)cc1C(=O)NCc1ccc(-c2ncc(-c3ccccn3)c3[nH]nc(N)c23)cc1"
Solution: 7.30 to 8.30
